Please go through the items and note down their pIC50.
Test system: Human immunodeficiency virus 1
Assay procedure: Antiviral activity against HIV-1 LAI harboring wild type reverse transcriptase infected in human MT4 cells after 5 days by MTT assay
Assay type: functional, organism-based
Reported conditions: Human immunodeficiency virus 1, LAI, MT4, 120 h
In plain terms, pIC50 is the concentration in mol/L turned into minus its base-10 logarithm.

*Q* Please state recorded pIC50 (tested on Human immunodeficiency virus 1) of "Cc1cc(C)cc(Sc2c(CNC=O)c(C)[nH]c(=O)c2I)c1"
*A* 8.90

*Q* State its pIC50 on Human immunodeficiency virus 1: "Cc1cc(C)cc(Sc2c(CSc3nccs3)c(C)[nH]c(=O)c2I)c1"
*A* 8.30

*Q* Tell me reported pIC50 for "Cc1cc(C)cc(Oc2c(COCCO)c(C)[nH]c(=O)c2I)c1" , tested with Human immunodeficiency virus 1.
*A* 8.70

*Q* Request body: readout pIC50, system Human immunodeficiency virus 1, query "COC1CCN(Cc2c(C)[nH]c(=O)c(I)c2Sc2cc(C)cc(C)c2)CC1" . Return the value.
*A* 8.40

*Q* pIC50 of "Cc1cc(C)cc(Oc2c(COCc3cccs3)c(C)[nH]c(=O)c2I)c1" on Human immunodeficiency virus 1?
*A* 8.20

*Q* Given the entry "Cc1cc(C)cc(Oc2c(CSCc3nccs3)c(C)[nH]c(=O)c2I)c1" , what pIC50 was observed with Human immunodeficiency virus 1?
*A* 8.10

*Q* Recall the recorded pIC50 for "Cc1cc(C)cc(Oc2c(Cn3cncc3C)c(C)[nH]c(=O)c2I)c1" with Human immunodeficiency virus 1 and state it.
*A* 8.30

*Q* Lab note: need pIC50 with Human immunodeficiency virus 1 for entry "Cc1cc(C)cc(Sc2c(Cn3cnc(C)c3/C=N/O)c(C)[nH]c(=O)c2I)c1" , please look it up.
*A* 8.20

*Q* Notebook: pull reported pIC50 for Human immunodeficiency virus 1, entry "Cc1cc(C)cc(Sc2c(Cn3cc(Br)cn3)c(C)[nH]c(=O)c2I)c1"
*A* 8.00

*Q* Value wanted: pIC50 (Human immunodeficiency virus 1) of entry "Cc1cc(C)cc(Sc2c(Cn3ccnn3)c(C)[nH]c(=O)c2I)c1"
*A* 8.70

*Q* # get_value(readout= pIC50, system= Human immunodeficiency virus 1) for Cc1cc(C)cc(Oc2c(COCC3CCCO3)c(C)[nH]c(=O)c2I)c1 (configuration not stated)
*A* 8.10

*Q* What value of pIC50 on Human immunodeficiency virus 1 does CCOC(=O)CC1CN(Cc2c(C)[nH]c(=O)c(I)c2Sc2cc(C)cc(C)c2)CCO1 (configuration not stated) have?
*A* 8.60

*Q* Lookup: pIC50 / Human immunodeficiency virus 1 / Cc1cc(C)cc(Oc2c(CN3CCOC(CC#N)C3)c(C)[nH]c(=O)c2I)c1 (configuration not stated)
*A* 8.20

*Q* // lookup pIC50 | system=Human immunodeficiency virus 1 | key= "Cc1cc(C)cc(Sc2c(CN3CCCCC3)c(C)[nH]c(=O)c2I)c1"
*A* 8.20

*Q* Lab request: please report pIC50 under test system Human immunodeficiency virus 1 for "CCc1c(C)[nH]c(=O)c(N(C)C)c1Cc1cc(C)cc(C)c1"
*A* 8.10

*Q* Could you share what pIC50 was measured for "Cc1cc(C)cc(Oc2c(Cn3cnc(C#N)c3C#N)c(C)[nH]c(=O)c2I)c1" , tested on Human immunodeficiency virus 1?
*A* 8.00

*Q* Any idea what pIC50 came out for "Cc1cc(C)cc(Oc2c(CN3CCN(C(=O)c4ccco4)CC3)c(C)[nH]c(=O)c2I)c1" on Human immunodeficiency virus 1?
*A* 8.00

*Q* # get_value(readout= pIC50, system= Human immunodeficiency virus 1) for "Cc1cc(C)cc(Oc2c(Cn3ncc4ccccc43)c(C)[nH]c(=O)c2I)c1"
*A* 8.10

*Q* Enter reported pIC50 observed with Human immunodeficiency virus 1 for "Cc1cc(C)cc(Sc2c(Cn3nc(-c4ccco4)nc3C)c(C)[nH]c(=O)c2I)c1"
*A* 8.70

*Q* For Human immunodeficiency virus 1, provide pIC50 of "Cc1cc(C)cc(Oc2c(COCc3ccccc3)c(C)[nH]c(=O)c2I)c1" please.
*A* 8.10

*Q* Record lookup: for Human immunodeficiency virus 1, what pIC50 belongs to "Cc1cc(C)cc(Oc2c(CSCc3csc(C)n3)c(C)[nH]c(=O)c2I)c1" ?
*A* 9.00

*Q* Request - read-out pIC50 | tested on Human immunodeficiency virus 1 | molecule "Cc1cc(C)cc(Oc2c(CN3CCSCC3)c(C)[nH]c(=O)c2I)c1"
*A* 8.20

*Q* Recall the recorded pIC50 for "Cc1cc(C)cc(Oc2c(CO)c(C)[nH]c(=O)c2I)c1" with Human immunodeficiency virus 1 and state it.
*A* 8.30

*Q* # returns recorded pIC50 (system: Human immunodeficiency virus 1) for Cc1cc(C)cc(Oc2c(CN3CCCC(C(N)=O)C3)c(C)[nH]c(=O)c2I)c1 (configuration not stated)
*A* 8.00

*Q* Please state recorded pIC50 (tested on Human immunodeficiency virus 1) of "Cc1cc(C)cc(Oc2c(CN3CC=CC3)c(C)[nH]c(=O)c2I)c1"
*A* 8.40

*Q* # get_value(readout= pIC50, system= Human immunodeficiency virus 1) for "Cc1cc(C)cc(Oc2c(CSC3CCCC3)c(C)[nH]c(=O)c2I)c1"
*A* 8.00

*Q* Test system Human immunodeficiency virus 1; read-out pIC50; what value for "Cc1cc(C)cc(Oc2c(Cn3cncc3-c3ccccc3)c(C)[nH]c(=O)c2I)c1" ?
*A* 8.20

*Q* Recall the recorded pIC50 for COC1CCCN(Cc2c(C)[nH]c(=O)c(I)c2Oc2cc(C)cc(C)c2)C1 (configuration not stated) with Human immunodeficiency virus 1 and state it.
*A* 8.20

*Q* Provide the documented pIC50 with Human immunodeficiency virus 1 as the system for "Cc1cc(C)cc(Sc2c(Cn3cnc(-c4ccccc4)n3)c(C)[nH]c(=O)c2I)c1"
*A* 8.20

*Q* Human immunodeficiency virus 1 / pIC50 / "Cc1cc(C)cc(Oc2c(COCc3ccc(F)cc3)c(C)[nH]c(=O)c2I)c1" : value?
*A* 8.10

*Q* Checklist item: pIC50 tested on Human immunodeficiency virus 1, entry "Cc1cc(C)cc(Oc2c(Cn3cnnn3)c(C)[nH]c(=O)c2I)c1" , value?
*A* 9.10

*Q* Form: Entry = "CC(=O)c1c(C)cn(Cc2c(C)[nH]c(=O)c(I)c2Sc2cc(C)cc(C)c2)c1C" | System = Human immunodeficiency virus 1 | pIC50 = ____
*A* 8.00
